This collection of values is drawn from ChEMBL document CHEMBL4145497.

Tested on: Escherichia coli
Assay: Antibacterial activity against Escherichia coli DH52 after 18 to 24 hrs by CLSI two fold serial dilution method
Type: functional
MEASURED_QUANTITY: MIC (µM)
Return type: number; implicit unit µM.

[
  {
    "MOLECULE": "CCCCCCOc1c(OC)cc(/C=N/Nc2nccs2)c2c1CN1CCc3cc4c(cc3C1C2)OCO4 (stereo not drawn)",
    "ENDPOINT_UNIT": "µM",
    "MIC": 60
  }
]

Prompt: Item: CCCCCCCCCCCCOc1c(OC)cc(/C=N/Nc2nccs2)c2c1CN1CCc3cc4c(cc3C1C2)OCO4 (stereo not drawn) Test system: Escherichia coli Read-out: MIC Value: ?
Completion: 210

Prompt: API: value(readout= MIC, system= Escherichia coli, query= `CCn1cc(C(=O)O)c(=O)c2cc(F)c(N3CCNCC3)cc21` )
Completion: 50

Prompt: Find MIC (Escherichia coli) for the entry COc1cc(/C=N/NC(N)=S)c2c(c1OCc1ccc(Cl)cc1)CN1CCc3cc4c(cc3C1C2)OCO4 (stereo not drawn)
Completion: 230

Prompt: Form field: MIC recorded for CCCCCCCCOc1c(OC)cc(/C=N/NC(N)=S)c2c1CN1CCc3cc4c(cc3C1C2)OCO4 (stereo not drawn) with Escherichia coli (enter value)
Completion: 240

Prompt: # value lookup — system Escherichia coli, readout MIC, item COc1cc(/C=N/NC(N)=S)c2c(c1OCc1ccccc1Cl)CN1CCc3cc4c(cc3C1C2)OCO4 (stereo not drawn)
Completion: 230

Prompt: Recall the recorded MIC for COc1cc(/C=N/NC(N)=S)c2c(c1OCc1ccc([N+](=O)[O-])cc1)CN1CCc3cc4c(cc3C1C2)OCO4 (stereo not drawn) with Escherichia coli and state it.
Completion: 110

Prompt: Please state recorded MIC (tested on Escherichia coli) of COc1cc(/C=N/Nc2nccs2)c2c(c1OCc1ccc(Cl)cc1Cl)CN1CCc3cc4c(cc3C1C2)OCO4 (stereo not drawn)
Completion: 840

###

System: Staphylococcus aureus
Experiment: Antibacterial activity against Staphylococcus aureus ATCC 25923 after 18 to 24 hrs by CLSI two fold serial dilution method
Format: functional
MEASURED_QUANTITY: MIC (µM)
Give just the number in µM; leave the unit off.

Worked cases, MIC given:
[
  {
    "COMPOUND": "COc1cc(/C=N/Nc2nccs2)c2c(c1OCc1cccc(Cl)c1)CN1CCc3cc4c(cc3C1C2)OCO4 (stereo not drawn)",
    "ENDPOINT_UNIT": "µM",
    "MIC": 220
  },
  {
    "COMPOUND": "COc1cc(/C=N/NC(N)=S)c2c(c1OCc1ccc([N+](=O)[O-])cc1)CN1CCc3cc4c(cc3C1C2)OCO4 (stereo not drawn)",
    "ENDPOINT_UNIT": "µM",
    "MIC": 230
  },
  {
    "COMPOUND": "COc1cc(/C=N/NC(N)=S)c2c(c1OCc1cccc(Cl)c1)CN1CCc3cc4c(cc3C1C2)OCO4 (stereo not drawn)",
    "ENDPOINT_UNIT": "µM",
    "MIC": 60
  },
  {
    "COMPOUND": "COc1ccc2cc3[n+](cc2c1OC)CCc1cc2c(cc1-3)OCO2",
    "ENDPOINT_UNIT": "µM",
    "MIC": 340
  },
  {
    "COMPOUND": "COc1cc(/C=N/NC(N)=S)c2c(c1OCc1ccc(Cl)cc1Cl)CN1CCc3cc4c(cc3C1C2)OCO4 (stereo not drawn)",
    "ENDPOINT_UNIT": "µM",
    "MIC": 110
  },
  {
    "COMPOUND": "COc1cc(/C=N/NC(N)=S)c2c(c1OCc1ccc(Cl)cc1)CN1CCc3cc4c(cc3C1C2)OCO4 (stereo not drawn)",
    "ENDPOINT_UNIT": "µM",
    "MIC": 230
  }
]

Prompt: Bench note: what MIC did COc1cc(/C=N/Nc2nccs2)c2c(c1OCc1ccc(Cl)c(Cl)c1)CN1CCc3cc4c(cc3C1C2)OCO4 (stereo not drawn) show?
Completion: 110

Prompt: # MIC lookup, item COc1cc(/C=N/NC(N)=S)c2c(c1OCC#N)CN1CCc3cc4c(cc3C1C2)OCO4 (stereo not drawn)
Completion: 280

Prompt: Would you kindly share the measured MIC for C#CCOc1c(OC)cc(/C=N/NC(N)=S)c2c1CN1CCc3cc4c(cc3C1C2)OCO4 (stereo not drawn) ?
Completion: 70

Prompt: May I ask what MIC has been recorded for CCCCCCOc1c(OC)cc(/C=N/NC(N)=S)c2c1CN1CCc3cc4c(cc3C1C2)OCO4 (stereo not drawn) ?
Completion: 130

Prompt: Param item = CCCCCCCCOc1c(OC)cc(/C=N/NC(N)=S)c2c1CN1CCc3cc4c(cc3C1C2)OCO4 (stereo not drawn) ; retrieve measured MIC.
Completion: 60

###

Tested on: Escherichia coli
Experiment: Antibacterial activity against Escherichia coli DH52 after 18 to 24 hrs by CLSI two fold serial dilution method
Format: functional
MEASURED_QUANTITY: MIC (µM)
Your answer is read as µM, so omit the unit and give the number.

Some solved cases for reference:
[
  {
    "COMPOUND": "COc1cc(/C=N/NC(N)=S)c2c(c1OCc1ccc(F)cc1)CN1CCc3cc4c(cc3C1C2)OCO4 (centres undefined)",
    "RESULT_VALUE": 240
  },
  {
    "COMPOUND": "COc1cc(/C=N/NC(N)=S)c2c(c1OCc1ccc(Cl)c(Cl)c1)CN1CCc3cc4c(cc3C1C2)OCO4 (centres undefined)",
    "RESULT_VALUE": 110
  },
  {
    "COMPOUND": "COc1cc(/C=N/NC(N)=S)c2c(c1OCC#N)CN1CCc3cc4c(cc3C1C2)OCO4 (centres undefined)",
    "RESULT_VALUE": 280
  }
]

Proceed to the following item.
Prompt: Form: Entry = CCCCCCCCCCOc1c(OC)cc(/C=N/Nc2nccs2)c2c1CN1CCc3cc4c(cc3C1C2)OCO4 (centres undefined) | System = Escherichia coli | MIC = ____
Completion: 220

###

log10 MIC: recorded values
System: Bacillus subtilis
Assay: Antibacterial activity against Bacillus subtilis ATCC 21216 after 18 to 24 hrs by CLSI two fold serial dilution method
Assay type: functional
Hey, these are logged values: log10 of MIC, µM being the unit before logging.

[
  {
    "COMPOUND": "COc1cc(/C=N/NC(N)=S)c2c(c1OCc1ccccc1F)CN1CCc3cc4c(cc3C1C2)OCO4 (configuration not stated)",
    "MEASURED_QUANTITY": "log10 MIC",
    "RESULT_VALUE": 2.38
  },
  {
    "COMPOUND": "COc1cc(/C=N/NC(N)=S)c2c(c1OCc1ccc(Cl)cc1Cl)CN1CCc3cc4c(cc3C1C2)OCO4 (configuration not stated)",
    "MEASURED_QUANTITY": "log10 MIC",
    "RESULT_VALUE": 2.34
  },
  {
    "COMPOUND": "COc1cc(/C=N/NC(N)=S)c2c(c1OCc1cccc(Cl)c1)CN1CCc3cc4c(cc3C1C2)OCO4 (configuration not stated)",
    "MEASURED_QUANTITY": "log10 MIC",
    "RESULT_VALUE": 2.08
  },
  {
    "COMPOUND": "COc1cc(/C=N/NC(N)=S)c2c(c1OCc1ccc([N+](=O)[O-])cc1)CN1CCc3cc4c(cc3C1C2)OCO4 (configuration not stated)",
    "MEASURED_QUANTITY": "log10 MIC",
    "RESULT_VALUE": 2.66
  },
  {
    "COMPOUND": "COc1cc(/C=N/Nc2nccs2)c2c(c1OCCO)CN1CCc3cc4c(cc3C1C2)OCO4 (configuration not stated)",
    "MEASURED_QUANTITY": "log10 MIC",
    "RESULT_VALUE": 2.41
  }
]

Prompt: // query log10 MIC value for entry COc1cc(/C=N/NC(N)=S)c2c(c1OCc1ccccc1)CN1CCc3cc4c(cc3C1C2)OCO4 (configuration not stated)
Completion: 2.40

Prompt: Value lookup for log10 MIC; key = CCCCCCCCCCOc1c(OC)cc(/C=N/Nc2nccs2)c2c1CN1CCc3cc4c(cc3C1C2)OCO4 (configuration not stated)
Completion: 2.34

Prompt: If you can, please state the reported log10 MIC value of COc1cc(/C=N/NC(N)=S)c2c(c1O)CN1CCc3cc4c(cc3C1C2)OCO4 (configuration not stated) .
Completion: 2.48

Prompt: Recorded log10 MIC for COc1cc(/C=N/Nc2nccs2)c2c(c1OCc1ccccc1Cl)CN1CCc3cc4c(cc3C1C2)OCO4 (configuration not stated) , please?
Completion: 2.34

Prompt: What does the data say about its log10 MIC? Entry: CCCCOc1c(OC)cc(/C=N/Nc2nccs2)c2c1CN1CCc3cc4c(cc3C1C2)OCO4 (configuration not stated)
Completion: 2.40

Prompt: Data request, read-out log10 MIC, for COc1cc(/C=N/Nc2nccs2)c2c(c1OCc1cccc(Cl)c1)CN1CCc3cc4c(cc3C1C2)OCO4 (configuration not stated)
Completion: 2.04

Prompt: Which log10 MIC reading was recorded for the compound COc1cc(/C=N/Nc2nccs2)c2c(c1OCc1ccccc1F)CN1CCc3cc4c(cc3C1C2)OCO4 (configuration not stated) ?
Completion: 2.66

Prompt: Value lookup for log10 MIC; key = CCCCCCCCOc1c(OC)cc(/C=N/Nc2nccs2)c2c1CN1CCc3cc4c(cc3C1C2)OCO4 (configuration not stated)
Completion: 2.65

Prompt: For C=CCOc1c(OC)cc(/C=N/NC(N)=S)c2c1CN1CCc3cc4c(cc3C1C2)OCO4 (configuration not stated) , what is its reported log10 MIC?
Completion: 2.43

Prompt: Name the recorded log10 MIC for COc1cc(/C=N/NC(N)=S)c2c(c1OCc1ccc(Cl)cc1)CN1CCc3cc4c(cc3C1C2)OCO4 (configuration not stated) .
Completion: 2.67

Prompt: Dear colleague, I am looking for the recorded log10 MIC of the following compound: CCOc1c(OC)cc(/C=N/NC(N)=S)c2c1CN1CCc3cc4c(cc3C1C2)OCO4 (configuration not stated)
Completion: 2.45

Prompt: Value lookup for log10 MIC; key = COc1cc(/C=N/Nc2nccs2)c2c(c1OCc1ccc([N+](=O)[O-])cc1)CN1CCc3cc4c(cc3C1C2)OCO4 (configuration not stated)
Completion: 2.04

Prompt: Find the recorded log10 MIC belonging to COc1cc(/C=N/Nc2nccs2)c2c(c1OCc1ccc(Cl)cc1)CN1CCc3cc4c(cc3C1C2)OCO4 (configuration not stated) and report it.
Completion: 2.65

Prompt: Tell me the measured log10 MIC of COc1cc(/C=N/Nc2nccs2)c2c(c1OCc1ccc(F)cc1)CN1CCc3cc4c(cc3C1C2)OCO4 (configuration not stated) , please.
Completion: 2.36
